system under test: T1, recombinant human 5T4 ECD protein fused to human Fc (human, UniProt Q13641 32-355)
T1 construct: extracellular domain; Immunogen, ELISA antigen and Octet analyte; also called 5T4-ECD-hFc; 5T4-ECD-Fc; not shown: human Fc
T1 sequence (looked up): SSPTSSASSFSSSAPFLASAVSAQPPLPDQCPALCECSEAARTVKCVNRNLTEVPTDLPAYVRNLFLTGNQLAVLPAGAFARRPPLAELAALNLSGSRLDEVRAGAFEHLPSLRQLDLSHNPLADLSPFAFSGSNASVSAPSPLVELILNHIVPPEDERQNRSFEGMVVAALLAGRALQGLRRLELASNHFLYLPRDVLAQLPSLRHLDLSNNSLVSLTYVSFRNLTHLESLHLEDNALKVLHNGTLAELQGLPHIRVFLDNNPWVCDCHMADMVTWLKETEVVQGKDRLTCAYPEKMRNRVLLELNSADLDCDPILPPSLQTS
assay text: Octet, mAb on AMC sensor, 5T4-ECD Fc as analyte
Would you kindly list Kd for each of these binders?
Number in nM, nothing else.

Reported Kd ( mAb005 (antibody, V domains shown, also called IM, 5T4 mouse hybridoma cl-5) VH: EVQLVESGGGLVQPKGSLQLSCAASGFTFNTYAMHWVRQAPGKGLEWVARIRSKSSNYATYYADSVKDRFTISRDDSQSMLYLQMNNLKTEDTAMYYCVRDGDYYYGSRPSYWYFDVWGTGTTVTVSS VL: DILLTQSPAILSVSPGERVSFSCRASQSIGTNIHWYQQRTNGSPRLLIKYASESISGIPSRFSGSGSGTDFTLSINNVESEDIADYYCQQTNTWPLTFGAGTKLDLK ) = 2.69

Reported Kd ( mAb008 (antibody, V domains shown, also called IM, 5T4 mouse hybridoma cl-8) VH: QVQLQQSGAELMKPGASVKLACKATGYTFTAYWIEWVKQRPGHGLEWIGEILPGRGSTNSNEKFKGKATFTADTSSNTVYMQLSSLTTEDSAIFYCARGYRDFDYWGQGTTLTVSS VL: DIVMTQSQKFMSTTVGDRVSIICKASQNVGTAVAWYQQKPGQSPKVLIYSASNRYTGVPDRFTGSGSGTDFTLTISNMQSEDLADYFCQQYTSYPRTFGGGTKLEIK ) = 0.209

Reported Kd ( mAb018 (antibody, V domains shown, also called IM, 5T4 mouse hybridoma cl-18) VH: EVQLRQSGPVLVKPGASLKMSCKASGFTIADYYMTWVTQSHGQSLDWIGLINPYSGETTYNQKFKGKATLSVDKSSNTAYMDLNSLTSEDSAVYYCARWRLGYYAMDYWGRGTSVTVSS VL: ENVLTQSPAIMSASPGEKVTMTCSASSSVSYMHWYQQKSSTSPKVWIYDTSKLASGVPGRFSGSGSGNSYSLTISSMEAEDVATYYCFQGIGYPYTFGGGTKLEIK ) = 0.269

Reported Kd ( mAb016 (antibody, V domains shown, also called mAb0016; IM, 5T4 mouse hybridoma cl-16) VH: AVQLQQSGPVRVKPGASVKMSCKASGYPFTDYYMNWVKQSHGRSLDWIGVFNPYNGDTRYTQKFKDKATLTIDKSSSTAYMELNSLTSEDSAVYYCARLRLLYDTSEYYVMDYWGQGTSVTVSS VL: ENVLTQSPAIMSASPGEKVTMTCSASSSVNYMHWYQQKSNTSPKLWIYDTSKLASGVPGRFSGSGSGNSYSLTISSMEAEDVATYFCFQGSGYPYTFGGGTKLEIK ) = 0.232
